System: KIT (human), P10721 [D816V]
Sequence (P10721 whole entry D816V, looked up): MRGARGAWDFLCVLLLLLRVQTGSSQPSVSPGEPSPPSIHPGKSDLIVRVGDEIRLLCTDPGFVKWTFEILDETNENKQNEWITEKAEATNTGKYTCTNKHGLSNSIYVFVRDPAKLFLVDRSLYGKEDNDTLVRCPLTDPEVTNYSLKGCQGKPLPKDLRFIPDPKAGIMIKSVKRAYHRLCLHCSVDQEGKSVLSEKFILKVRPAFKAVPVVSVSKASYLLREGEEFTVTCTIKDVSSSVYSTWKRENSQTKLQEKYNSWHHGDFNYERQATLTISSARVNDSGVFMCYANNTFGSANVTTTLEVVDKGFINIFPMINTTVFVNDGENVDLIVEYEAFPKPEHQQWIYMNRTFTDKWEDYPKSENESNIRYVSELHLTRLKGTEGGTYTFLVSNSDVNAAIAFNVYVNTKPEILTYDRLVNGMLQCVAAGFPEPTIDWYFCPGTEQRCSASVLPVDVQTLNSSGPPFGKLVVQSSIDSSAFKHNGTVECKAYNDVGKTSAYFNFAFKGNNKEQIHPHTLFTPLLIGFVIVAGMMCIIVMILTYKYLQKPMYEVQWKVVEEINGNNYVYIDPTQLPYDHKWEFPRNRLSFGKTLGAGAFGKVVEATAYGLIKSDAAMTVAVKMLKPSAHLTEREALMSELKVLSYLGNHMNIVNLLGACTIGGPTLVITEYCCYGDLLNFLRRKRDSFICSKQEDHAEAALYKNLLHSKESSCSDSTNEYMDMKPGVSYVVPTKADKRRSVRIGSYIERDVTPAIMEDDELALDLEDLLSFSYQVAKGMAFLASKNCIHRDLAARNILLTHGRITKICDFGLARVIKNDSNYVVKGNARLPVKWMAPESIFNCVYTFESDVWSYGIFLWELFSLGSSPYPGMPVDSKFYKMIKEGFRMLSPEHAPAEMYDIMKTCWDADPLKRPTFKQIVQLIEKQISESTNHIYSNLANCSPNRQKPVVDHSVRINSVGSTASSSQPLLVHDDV
Assay: KINOMEscan competition binding
Settings: compound 10.0 µM
readout name: kinase still bound, per cent of control (%)
Express the result in % but write the number alone.

Sample N=C1NC(=O)/C(=C/c2ccc(-c3cncc4ccccc34)o2)S1 ; kinase still bound, per cent of control observed: 3.8

The recorded kinase still bound, per cent of control for CN1C(=O)c2ccccc2N(C)c2nc(NS(=O)(=O)c3ccc(N)cc3)ncc21 is 100

Lab book: kinase still bound, per cent of control of CS(=O)(=O)Nc1ccc(-c2ncc(/C=C3\SC(=N)NC3=O)s2)cc1 noted as 4.4

CS(=O)(=O)Nc1ccc(-c2cc(/C=C3\SC(=N)NC3=O)c[nH]c2=O)cc1 has a reported kinase still bound, per cent of control of 19

For reference, reported kinase still bound, per cent of control for COc1cc(N2CCC(O)CC2)ccc1Nc1ncc2c(n1)N1CCc3cccc(c31)C(=O)N2C stands at 76

###

Biological target: RIPK4 (human) (UniProt P57078)
Sequence (P57078 whole entry, looked up): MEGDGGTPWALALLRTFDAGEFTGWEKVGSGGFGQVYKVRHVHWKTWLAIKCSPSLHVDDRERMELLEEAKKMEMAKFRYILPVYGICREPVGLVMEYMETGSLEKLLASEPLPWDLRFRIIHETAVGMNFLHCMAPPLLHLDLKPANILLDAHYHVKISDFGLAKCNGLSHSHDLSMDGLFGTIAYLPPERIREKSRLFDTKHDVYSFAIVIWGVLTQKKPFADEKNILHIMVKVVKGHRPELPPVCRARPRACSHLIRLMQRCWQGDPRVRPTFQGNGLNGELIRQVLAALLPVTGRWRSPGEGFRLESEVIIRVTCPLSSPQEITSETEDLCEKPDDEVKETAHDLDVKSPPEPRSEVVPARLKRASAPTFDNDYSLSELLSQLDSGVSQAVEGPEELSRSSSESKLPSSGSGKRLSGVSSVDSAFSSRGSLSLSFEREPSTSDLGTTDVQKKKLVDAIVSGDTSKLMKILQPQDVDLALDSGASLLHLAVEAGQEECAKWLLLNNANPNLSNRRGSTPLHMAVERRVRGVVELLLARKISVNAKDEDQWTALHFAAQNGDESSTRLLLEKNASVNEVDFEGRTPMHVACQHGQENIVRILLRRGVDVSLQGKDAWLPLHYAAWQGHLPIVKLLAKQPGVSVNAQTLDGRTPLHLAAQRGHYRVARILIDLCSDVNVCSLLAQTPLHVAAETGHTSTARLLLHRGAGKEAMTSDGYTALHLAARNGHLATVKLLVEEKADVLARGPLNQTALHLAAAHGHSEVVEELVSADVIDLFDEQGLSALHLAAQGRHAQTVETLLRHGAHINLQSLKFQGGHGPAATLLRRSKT
Test: KINOMEscan competition binding
Details: compound 10.0 µM
readout name: kinase still bound, per cent of control (%)
# unit: % | format: bare number

According to the records, this compound CS(=O)(=O)Nc1ccc(-c2cncc(/C=C3\SC(=N)NC3=O)c2)cc1 displays kinase still bound, per cent of control of 5.8

Noted for N=C1NC(=O)/C(=C/c2ccc(-c3ccc(C(=O)Nc4ccc(N5CCNCC5)cc4)cc3O)o2)S1 : its kinase still bound, per cent of control reads 5.5

Quick note, kinase still bound, per cent of control for COc1cc(N2CCN(C)CC2)ccc1Nc1ncc2c(n1)Nc1ccccc1NC2=O landed at 100

Data point: CN1C(=O)c2ccccc2N(C)c2nc(Nc3ccc(N4CCC(O)CC4)cc3)ncc21 ; kinase still bound, per cent of control = 61

kinase still bound, per cent of control recorded for this compound, N=C1NC(=O)/C(=C/c2ccc(-c3ccc4c(C(=O)Nc5ccc(N6CCNCC6)cc5)cccc4c3)o2)S1 , is 1.3

Entry COc1cc(N2CCC(O)CC2)ccc1Nc1ncc2c(n1)N1CCc3cccc(c31)C(=O)N2C , kinase still bound, per cent of control reported as 79

// kinase still bound, per cent of control value for COc1cc(N2CCN(C)CC2)ccc1Nc1ncc2c(n1)N(C)c1ccccc1N(C)C2=O : 100

Measured kinase still bound, per cent of control, CN1CCN(c2ccc(C(=O)Nc3ncc4c(n3)N(C)c3ccccc3C(=O)N4C)cc2)CC1 : 96

Field kinase still bound, per cent of control (entry Cc1cn(-c2cc(NC(=O)c3cccc4cc(-c5ccc(/C=C6\SC(=N)NC6=O)o5)ccc34)cc(C(F)(F)F)c2)cn1 ) reads 1

###

Target: UniProtKB P42338
Sequence (P42338 whole entry, looked up): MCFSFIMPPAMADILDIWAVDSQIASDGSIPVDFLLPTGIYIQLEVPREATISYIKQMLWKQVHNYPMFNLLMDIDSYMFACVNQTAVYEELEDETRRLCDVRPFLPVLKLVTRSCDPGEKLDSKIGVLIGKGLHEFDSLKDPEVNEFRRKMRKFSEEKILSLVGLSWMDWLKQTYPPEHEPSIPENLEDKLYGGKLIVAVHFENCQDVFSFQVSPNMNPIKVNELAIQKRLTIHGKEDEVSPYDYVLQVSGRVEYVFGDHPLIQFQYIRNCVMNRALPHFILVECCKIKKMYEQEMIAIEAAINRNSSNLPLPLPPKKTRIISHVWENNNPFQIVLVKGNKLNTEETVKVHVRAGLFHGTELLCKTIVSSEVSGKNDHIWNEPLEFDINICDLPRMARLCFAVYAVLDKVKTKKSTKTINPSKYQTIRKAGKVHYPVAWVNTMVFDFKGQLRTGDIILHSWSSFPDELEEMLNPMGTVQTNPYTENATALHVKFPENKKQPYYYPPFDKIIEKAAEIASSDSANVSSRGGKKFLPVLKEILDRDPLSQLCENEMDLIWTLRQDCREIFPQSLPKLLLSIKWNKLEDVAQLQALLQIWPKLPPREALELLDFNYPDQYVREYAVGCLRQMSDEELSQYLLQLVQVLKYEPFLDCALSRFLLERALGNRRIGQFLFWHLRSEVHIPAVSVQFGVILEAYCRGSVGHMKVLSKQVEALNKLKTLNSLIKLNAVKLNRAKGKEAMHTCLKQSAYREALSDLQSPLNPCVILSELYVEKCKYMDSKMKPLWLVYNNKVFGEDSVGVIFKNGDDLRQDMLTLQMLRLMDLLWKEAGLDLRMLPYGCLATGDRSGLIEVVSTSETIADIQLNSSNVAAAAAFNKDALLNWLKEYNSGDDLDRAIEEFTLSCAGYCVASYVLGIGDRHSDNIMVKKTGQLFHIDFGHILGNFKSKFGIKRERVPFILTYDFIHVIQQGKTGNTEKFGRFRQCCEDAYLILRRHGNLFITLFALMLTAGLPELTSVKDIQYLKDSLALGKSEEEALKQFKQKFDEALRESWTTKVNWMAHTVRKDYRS
Assay: KINOMEscan competition binding
Settings: compound 10.0 µM
For each entry below, report its kinase still bound, per cent of control value.
Kindly provide the numeric value in % only, without the unit symbol.

The compound listed as CN1CCN(c2ccc(C(=O)Nc3ncc4c(n3)N(C)c3ccccc3C(=O)N4C)cc2)CC1 shows kinase still bound, per cent of control equal to 100

Sure, the documented kinase still bound, per cent of control for COc1cc(N2CCN(C)CC2)ccc1Nc1ncc2c(n1)N(C)c1sccc1C(=O)N2C is 90

Short answer for CN1C(=O)c2ccccc2N(C)c2nc(Nc3ccc(N4CCC(O)CC4)cc3)ncc21 : kinase still bound, per cent of control was 94

The reported value for O=C1NC(=O)/C(=C/c2c[nH]c(=O)c(-c3ccc(C(=O)Nc4ccc(N5CCNCC5)cc4)cc3)c2)S1 in terms of kinase still bound, per cent of control is 2.4

Query O=C1NC(=O)C(=Cc2ccc(-c3ccc(S(=O)(=O)N4CCNCC4)cc3)o2)C(=O)N1 yields kinase still bound, per cent of control of 0

Value of kinase still bound, per cent of control reported for the compound COc1cc(N2CCN(C)CC2)ccc1Nc1ncc2c(n1)Nc1ccccc1NC2=O is 88
